- experimental.details: Solubility studies of fulvestrant in solvents, co-solvents, oils and release rate modifiers
- Assay type: physicochemical
- measurement.context: organic solvent or mixture, Benzyl alcohol (2 v/v %):Diethylene glycol monoethyl ether (q.s. to 1 mL); read-out: Fulvestrant solubility achieved
endpoint.label: solubility (mg/mL)
State the answer as a number, implicitly in mg/mL.

Ask | # lookup: solubility of C[C@]12CC[C@@H]3c4ccc(O)cc4C[C@@H](CCCCCCCCC[S+]([O-])CCCC(F)(F)C(F)(F)F)[C@H]3[C@@H]1CC[C@@H]2O (stereo partly shown) [Fulvestrant]
Reply | 200

###

- experimental.details: Solubility studies of fulvestrant in solvents, co-solvents, oils and release rate modifiers
- Assay type: physicochemical
- measurement.context: oil or lipid, Benzyl alcohol (10 v/v %):Castor oil (50 v/v %):Diethylene glycol monoethyl ether (q.s. to 1 mL); read-out: Fulvestrant solubility achieved
endpoint.label: solubility

Ask | For the compound shown here, C[C@]12CC[C@@H]3c4ccc(O)cc4C[C@@H](CCCCCCCCC[S+]([O-])CCCC(F)(F)C(F)(F)F)[C@H]3[C@@H]1CC[C@@H]2O (stereo partly shown) , give the reported solubility.
Reply | 151 mg/mL

###

- experimental.details: Solubility studies of fulvestrant in solvents, co-solvents, oils and release rate modifiers
- Format: physicochemical
- measurement.context: oil or lipid, Benzyl alcohol (4 v/v %):Diethylene glycol monoethyl ether (31 v/v %):Castor oil (q.s. to 1 mL); read-out: Fulvestrant solubility achieved
endpoint.label: solubility
# answer = value followed by unit

Ask | Any idea what its solubility is? The compound is C[C@]12CC[C@@H]3c4ccc(O)cc4C[C@@H](CCCCCCCCC[S+]([O-])CCCC(F)(F)C(F)(F)F)[C@H]3[C@@H]1CC[C@@H]2O (stereo partly shown)
Reply | 30 mg/mL

These entries and their values trace back to patent US20180289721A1.
